// provenance: paper PMC9482650

Molecular target: T1, SNTG2, Q9NY99
T1 sequence (Q9NY99 68-166, limits assumed, looked up): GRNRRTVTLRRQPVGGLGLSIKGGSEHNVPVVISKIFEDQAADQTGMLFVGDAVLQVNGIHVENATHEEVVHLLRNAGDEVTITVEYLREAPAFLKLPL
Assay: holdup assay
Set-up: key: below the threshold = too weak to quantify, mostly under pKd 3.1 to 4
Settings: plain residues with an end cap or a label only (N-terminal biotin on a linker: ado-ado)
MEASURE: pKd

>  <BINDER>
IDESKKEWLI [CNTNAP2, Q9UHC6]

>  <RESULT>
below the threshold

$$$$
>  <BINDER>
QLSFNTDTLC [ABCA2, Q9BZC7]

>  <RESULT>
below the threshold

$$$$
>  <BINDER>
KKMLQRRTLL [OR8G1, Q15617]

>  <RESULT>
below the threshold

$$$$
>  <BINDER>
APIAGFSSFV [SDK2, Q58EX2]

>  <RESULT>
below the threshold

$$$$
>  <BINDER>
LAHVKHKEQI [AQP3, Q92482]

>  <RESULT>
below the threshold

$$$$
>  <BINDER>
AQRARSPSDV [GPR12, P47775]

>  <RESULT>
below the threshold

$$$$

Which pKd value is on record for ARSAAASNYV [CLDN4, O14493] ? below the threshold

Which pKd value is on record for TISFTQTSQF [SLC1A1, P43005] ? below the threshold

Which pKd value is on record for EDGESWEYQI [TRPV6, Q9H1D0] ? below the threshold
